assay: BET inhibitor-based combinations targeting novel dependencies in MECOM-rearranged (r) AML: OCI-AML3 cell line (AID 2202232); conditions: CellTiter-Glo luminescence, 48 h; OCI-AML3 viability; series mostly up to 46 µM; also: nearly all actives have a fitted effect of over 35% in size
Inconclusive results are not listed. The source made the active and inactive calls. Calls follow the shape of the dose curve; as a rule, active = well fitted inhibition curve with a large enough effect; inconclusive = small, poorly fitted or top-dose-only effect; inactive = no such curve, though single readings can be large or run the other way.
The reply should name one outcome from active, inactive

Would you please look over these solved cases?
chemical smiles	group label
CCO[C@@H]1OC(=O)C[C@@H]1NC(=O)[C@@H]1CCCN2C(=O)CC[C@H](NC(=O)c3nccc4ccccc34)C(=O)N12	inactive
CNCCn1c(=O)c2cc(OC)c(OC)cc2c2cnc3cc4c(cc3c21)OCO4	active

Request: How did this test come out for CCOC(=O)[C@@H](N)Cc1ccc(-c2cc(O[C@H](c3ccc(Cl)cc3-n3ccc(C)n3)C(F)(F)F)nc(N)n2)cc1 ?
Response: active

* * *

molecular target: Retinaldehyde dehydrogenase 3 (Homo sapiens); assay: qHTS for Inhibitors of the Aldehyde Dehydrogenase Family (ALDH1A3) Confirmatory screens (AID 2061311); settings: ALDH inhibition qHTS; series mostly up to 46 µM; also: nearly all actives have a fitted effect of over 60% in size
Records with an inconclusive call do not appear. Calls of active or inactive are those of the source. Calls follow the shape of the dose curve; as a rule, active = well fitted inhibition curve with a large enough effect; inconclusive = small, poorly fitted or top-dose-only effect; inactive = no such curve, though single readings can be large or run the other way.
The reply should name one outcome from active, inactive

Would you please look over these solved cases?
chemical smiles	tested system	group label
O=C(Nc1cccc(C(F)(F)F)c1)c1cc(-c2ccc(Cl)cc2)on1	Retinaldehyde dehydrogenase 3 (Homo sapiens)	inactive
Cc1ccc(OCCn2c3c(c4ccccc42)CN(C(=O)C2CCCCC2)CC3)cc1	Retinaldehyde dehydrogenase 3 (Homo sapiens)	active
COc1cccc(-c2nc(-c3ccc(C(=O)O)cc3)no2)c1	Retinaldehyde dehydrogenase 3 (Homo sapiens)	active
O=C(Cc1ccc(F)cc1)Nc1cccc(-c2nc3cccnc3s2)c1	Retinaldehyde dehydrogenase 3 (Homo sapiens)	inactive
CN(C)c1cccc(-c2cnc(N3CCC(C(N)=O)CC3)s2)c1	Retinaldehyde dehydrogenase 3 (Homo sapiens)	active
c1ccc(-n2cc(-c3nnc4n3CCCCC4)cn2)cc1	Retinaldehyde dehydrogenase 3 (Homo sapiens)	active

Request: How did this test come out for CCOC(=O)C1CCN(C(=O)C(C)(C)NC(=O)Nc2ccc(N(C)C)cc2)CC1 ?
Response: active

Request: How did this test come out for CN(C)c1cccc(-c2cnc(N3CCC(C(N)=O)CC3)nc2)c1 ?
Response: active

Request: How did this test come out for Oc1cc(NCc2ccc(F)cc2)cc2cccnc12 ?
Response: active

Request: How did this test come out for Cc1noc(C)c1S(=O)(=O)Nc1cnccc1C(=O)Nc1nc(-c2ccccc2)cs1 ?
Response: inactive

Request: How did this test come out for Cc1cccc(-c2ccc(CN)cc2)c1 ?
Response: inactive

Request: How did this test come out for O=C(Cn1c(=O)n(Cc2cccs2)c(=O)c2cccnc21)Nc1ccccc1F ?
Response: inactive

Request: How did this test come out for O=S1(=O)Nc2c(ccc3cccnc23)-c2ccccc21 ?
Response: active

* * *

experiment: BET inhibitor-based combinations targeting novel dependencies in MECOM-rearranged (r) AML: MV-4-11 cell line (AID 2202233); conditions: MV-4-11 AML viability, CellTiter-Glo luminescence, 48 h; series mostly up to 46 µM; also: nearly all actives have a fitted effect of over 45% in size
Results filed as inconclusive are left out. Calls of active or inactive are those of the source. Calls come from the whole dose curve; as a rule, active = well fitted inhibition curve with a large enough effect; inconclusive = small, poorly fitted or top-dose-only effect; inactive = no such curve, though single readings can be large or run the other way.
The reply should name one outcome from t = active, f = inactive

chemical smiles	group label
CCc1cc2c(c(OCC(F)(F)F)c(C(=O)NC3CCN(C(=O)CO)CC3)n2C)c(=O)n1CC(=O)c1ccccc1	f
O=c1oc2c(C3OCCCO3)c(O)ccc2c2c1CNCC2	f
C/C=C1\NC(=O)[C@H]2CSSCC/C=C\[C@H](CC(=O)N[C@H](C(C)C)C(=O)N2)OC(=O)[C@H](C(C)C)NC1=O	t

Request: How did this test come out for O=c1[nH]nc2c3c(cccc13)NC(CN1Cc3ccccc3C1)=N2 ?
Response: t

Request: How did this test come out for CN1C(=O)N[C@H](Cc2c[nH]c3c(Cl)cccc23)C1=O ?
Response: t
